Origin of values: ChEMBL document CHEMBL1201862

Kindly state GI50 for each of the entries shown.
system: SW-620; assay: NCI tumour cell line growth inhibition, 48 h
Active and inactive are the calls of the source. No stated cut-off is given here; in the data, active = GI50 up to about 1.1 µM and inactive = higher.

response.value for N#CCC(=O)NC1C2CC3CC(C2)CC1C3 (stereo unspecified) (field: GI50) = 25.4 µM (inactive)

response.value for CN(C)c1ccc(/C=C(\C#N)c2nc(-c3cc4ccccc4oc3=O)cs2)cc1 (field: GI50) = > 50 µM (inactive)

response.value for O=c1n(-c2ccccc2)c(=O)n2n1C1Cc3ccccc3C12 (stereo unspecified) (field: GI50) = > 100 µM (inactive)

response.value for O=P(c1ccccc1)(c1ccccc1)c1ccc2c(c1)OCCOCCOCCOCCO2 (field: GI50) = > 100 µM (inactive)

response.value for O=C1C(CO)=C(CO)C(=O)c2c(O)ccc(O)c21 (field: GI50) = 0.082 µM (active)

response.value for COc1ccc(Cc2nccc3cc(OC)c(OC)cc23)cc1 (field: GI50) = > 100 µM (inactive)

response.value for COc1ccc(C(=O)/C=C/c2ccc(OCCCOc3ccc(/C=C/C(=O)c4ccc(OC)c(OC)c4)cc3)cc2)cc1OC (field: GI50) = > 100 µM (inactive)

response.value for COc1ccc(/C=C/C(=O)c2c(-c3ccccc3)nn(C)c(=O)c2N2CC2C)cc1 (stereo unspecified) (field: GI50) = 26.4 µM (inactive)

response.value for CC1=NN(C(=O)CC(=O)Nc2ccccc2C)C(=O)C1/N=N\c1ccc(S(=O)(=O)c2ccc(/N=N/C3C(=O)N(C(=O)CC(=O)Nc4ccccc4C)N=C3C)cc2)cc1 (stereo unspecified) (field: GI50) = > 10 µM (inactive)

response.value for CC(=O)NNc1nc(C)c(C(/C=C/c2ccc(/C=C/C(=N\NC(=O)c3ccncc3)c3sc(NNC(C)=O)nc3C)cc2)=N/NC(=O)c2ccncc2)s1 (field: GI50) = > 100 µM (inactive)

response.value for O=C1C[C@@]23CCC4(CC2=CCC[C@H]3O1)OCCO4 (field: GI50) = > 100 µM (inactive)

response.value for CCn1c(=O)nc2n(-c3ccccc3)c3ccccc3nc-2c1=O (field: GI50) = 14.4 µM (inactive)

response.value for CC1=C(C(=O)Nc2ccccc2)C(c2ccc([N+](=O)[O-])cc2)C(C(=O)Nc2ccccc2)=C(C)N1 (field: GI50) = 15.2 µM (inactive)

response.value for COc1ccc(/C=C(/C)[N+](=O)[O-])cc1 (field: GI50) = 2.01 µM (inactive)

response.value for Cc1ccc(NC(=S)NNC(=O)c2cc(-c3ccccc3)nc3ccccc23)cc1C (field: GI50) = 31.5 µM (inactive)

response.value for CCN(CC)CC(C(=O)Nc1c(C)cccc1C)/C(C)=N/NC(N)=S (stereo unspecified) (field: GI50) = > 100 µM (inactive)

response.value for CCSC(=O)/C=C1\CN(C(=O)OC(C)(C)C)C1C(=O)OC(C)(C)C (stereo unspecified) (field: GI50) = 2.07 µM (inactive)

response.value for CCCCc1ccc(Nc2nc(Cl)c3c(ncn3COCCOC(C)=O)n2)cc1 (field: GI50) = 23.1 µM (inactive)

response.value for Oc1c2cc(Cl)cc1COCc1cc(Cl)cc(c1O)COCc1cc(Cl)cc(c1O)COC2 (field: GI50) = > 100 µM (inactive)

response.value for COc1cc(Cc2cc3c(c(C(=O)O)c2Br)OCO3)cc(OC)c1OC (field: GI50) = 69.2 µM (inactive)

response.value for OCCCCn1cc(Cn2ncc3c(O)ncnc32)nn1 (field: GI50) = > 100 µM (inactive)

response.value for CN(C)c1ccc(/C=C2\C[N+](C)(C)C/C(=C\c3ccc(N(C)C)cc3)C2=O)cc1 (field: GI50) = 15.3 µM (inactive)

response.value for O=C1CC(=O)NC(NN2C(=O)CSC2C(=O)c2ccco2)=N1 (stereo unspecified) (field: GI50) = > 100 µM (inactive)

response.value for COC(=O)C1Cc2ccc3c(c2C1=O)CCCC3 (stereo unspecified) (field: GI50) = 86.5 µM (inactive)

response.value for COC(=O)c1ccc(CCc2cc(O)ccc2O)cc1 (field: GI50) = 6.27 µM (inactive)

response.value for CO[C@H]1C=C[C@@]23c4cc5c(cc4CO[C@]2(O)CN(C)[C@H]3C1)OCO5 (field: GI50) = > 100 µM (inactive)

response.value for CCn1c(-c2cc(OC)cc(OC)c2)nc2c1C(=O)c1ccccc1C2=O (field: GI50) = > 100 µM (inactive)

response.value for NC(=O)Cc1nc2c(O)ncnc2n1C1OC(CO)C(O)C1O (stereo unspecified) (field: GI50) = > 100 µM (inactive)

response.value for CC(C)(C)NCC(O)c1ccc(O)c(CO)n1 (stereo unspecified) (field: GI50) = > 100 µM (inactive)

response.value for Cc1occc1/C(S)=N\c1ccc(Cl)c(C(=O)OCC2CC2)c1 (field: GI50) = 54.7 µM (inactive)

response.value for O=C1CNC(=O)c2[nH]cnc2N1 (field: GI50) = > 100 µM (inactive)

response.value for COCc1nc(N)nc(N2N=C(C)CC2(C)C)n1 (field: GI50) = > 100 µM (inactive)

response.value for COc1ccc(Oc2nc3ccc(C(F)(F)F)cc3nc2-c2ccccc2)cc1 (field: GI50) = > 100 µM (inactive)

response.value for COc1ccc(OC)c2c(=O)cc(-c3ccccc3)[nH]c12 (field: GI50) = > 100 µM (inactive)

response.value for Cc1cnc(-c2c[nH]c3ccccc23)nc1-c1c[nH]c2ccccc12 (field: GI50) = 11.5 µM (inactive)

response.value for C/C(=N\NC(=S)N1CCCC1)c1nc2cccnc2[nH]1 (field: GI50) = 1.22 µM (inactive)

response.value for O=C1OC(=O)C2C3CCC(O3)C12 (stereo unspecified) (field: GI50) = > 100 µM (inactive)

response.value for CCOC(=O)c1ncn2c1[nH]c(=O)c1ccccc12 (field: GI50) = > 100 µM (inactive)

response.value for O=C1CCC(c2ccccc2)=NN1c1nsc2ccccc12 (field: GI50) = > 100 µM (inactive)

response.value for C=C1C(=O)O[C@H]2C[C@@]3(C)[C@H](O)CCC(=C)[C@@H]3[C@@H](OC(C)=O)[C@H]12 (field: GI50) = 4.85 µM (inactive)

response.value for CC1=CC2=C(OCO1)C(=O)c1ccccc1C2=O (field: GI50) = 8.09 µM (inactive)

response.value for O=CN1CCN(C(=O)c2ccc(Cl)cc2Cl)C1=S (field: GI50) = 77.8 µM (inactive)

response.value for CN(C)CCCNc1nnc(NCCCN(C)C)c2c(=O)c3sccc3[nH]c12 (field: GI50) = 4.56 µM (inactive)

response.value for S=C1N=C2C(=N1)n1c3c(c4ccccc41)CCCC23 (stereo unspecified) (field: GI50) = 32.4 µM (inactive)

response.value for C=CCN(N=O)C(=O)NCCCC(NC(C)=O)C(=O)NCc1ccccc1 (stereo unspecified) (field: GI50) = > 100 µM (inactive)

response.value for NC1CCCCC1 (field: GI50) = 419 µM (inactive)
